Source of measurements: patent US6949648B2

Measured melting point values are reported for all entries that follow.

compound	experimental result
Cc1nn(-c2ccccn2)c2ncc(C(=O)N(C)c3ccccc3)c(OCc3ccccc3)c12 [Example 1-17]	92 to 93 °C
COc1cccc(-n2nc(C)c3c(N)c4cccc(C)c4nc32)n1 [Example 2-127]	134 to 137 °C

Problem: # query: melting point of entry Cc1nn(-c2ccccn2)c2nc(Cc3ccccc3)cc(O)c12 [Example 1-21]
Solution: 168 to 169 °C

Problem: Look up melting point: Cc1nn(-c2ccccn2)c2[nH]c3ccc([S+](C)[O-])cc3c(=O)c12 (stereo not shown) [Example 2-51]
Solution: 268 to 269 °C

Problem: What does the record list as melting point for Cc1nn(-c2ccccn2)c2nc3cc(Cl)c(Cl)cc3c(Cl)c12 [Example 2-75] ?
Solution: 213 to 214 °C

Problem: Name the recorded melting point for Cc1nc2c(c(C)nn2-c2ccccn2)c(O)c1Cc1ccccc1 [Example 1-20] .
Solution: 181 to 182 °C

Problem: // returns reported melting point for input CCOC(=O)c1cnc2c(c(C)nn2-c2ccccn2)c1N [Example 1-31]
Solution: 147 to 149 °C

Problem: Report melting point for Cc1nn(-c2ccccn2)c2nc3ncccc3c(Cl)c12 [Example 2-196] please.
Solution: 204 to 205 °C
